Below is a list of entries, each paired with its recorded IC50 value.
target: NRAS Q61R (Homo sapiens, UniProt P01111+P62937, Q61R); test: Ras-Raf disruption / FRET / MOA assay (BRAF RBD); assay type: biochemical
Sequence (P01111 whole entry Q61R): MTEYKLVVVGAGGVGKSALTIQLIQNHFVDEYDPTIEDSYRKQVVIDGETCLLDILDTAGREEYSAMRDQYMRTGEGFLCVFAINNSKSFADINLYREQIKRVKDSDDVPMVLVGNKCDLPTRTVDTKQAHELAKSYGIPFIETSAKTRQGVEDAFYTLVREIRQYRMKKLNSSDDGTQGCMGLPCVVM
Sequence (P62937 whole entry): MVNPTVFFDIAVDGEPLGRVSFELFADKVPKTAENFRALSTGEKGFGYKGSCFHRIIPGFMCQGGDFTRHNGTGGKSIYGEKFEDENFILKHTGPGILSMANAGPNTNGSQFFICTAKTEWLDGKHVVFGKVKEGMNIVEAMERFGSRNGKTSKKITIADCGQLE

CCn1c(-c2cccnc2[C@H](C)OC)c2c3cc(ccc31)-c1cc(O)cc(c1)C[C@H](NC(=O)[C@H](C(C)C)N(C)C(=O)CN(C)C(=O)[C@@H]1CN1C1COC1)C(=O)N1CCC[C@H](N1)C(=O)OCC(C)(C)C2 (stereo partly shown) | 100 to 1000 nM
CCn1c(-c2cccnc2[C@H](C)OC)c2c3cc(ccc31)-c1cc(O)cc(c1)C[C@H](NC(=O)[C@H](C(C)C)N(C)C(=O)[C@]13C[C@H]1CCN3C(=O)[C@@H]1CN1)C(=O)N1CCC[C@H](N1)C(=O)OCC(C)(C)C2 | 1000 to 10000 nM
CCn1c(-c2cccnc2[C@H](C)OC)c2c3cc(ccc31)-c1cc(O)cc(c1)C[C@H](NC(=O)[C@H](C(C)C)N(C)C(=O)CN(C)C(=O)[C@H]1N[C@@H]1C1COC1)C(=O)N1CCC[C@H](N1)C(=O)OCC(C)(C)C2 | 100 to 1000 nM

The record that follows has no IC50 shown yet.
Result for CCn1c(-c2cc(N3CCN(C)CC3)cnc2[C@H](C)OC)c2c3cc(ccc31)-c1cc(O)cc(c1)C[C@H](NC(=O)[C@H](C1CCCC1)N(C)C(=O)CN(C)C(=O)[C@H]1CN1)C(=O)N1CCC[C@H](N1)C(=O)OCC(C)(C)C2 , tested on NRAS Q61R (Homo sapiens, UniProt P01111+P62937, Q61R), IC50: 10 to 100 nM
